Biological target: Sialic acid-binding Ig-like lectin 9 (Homo sapiens) (UniProt Q9Y336)
Sequence (Q9Y336 whole entry): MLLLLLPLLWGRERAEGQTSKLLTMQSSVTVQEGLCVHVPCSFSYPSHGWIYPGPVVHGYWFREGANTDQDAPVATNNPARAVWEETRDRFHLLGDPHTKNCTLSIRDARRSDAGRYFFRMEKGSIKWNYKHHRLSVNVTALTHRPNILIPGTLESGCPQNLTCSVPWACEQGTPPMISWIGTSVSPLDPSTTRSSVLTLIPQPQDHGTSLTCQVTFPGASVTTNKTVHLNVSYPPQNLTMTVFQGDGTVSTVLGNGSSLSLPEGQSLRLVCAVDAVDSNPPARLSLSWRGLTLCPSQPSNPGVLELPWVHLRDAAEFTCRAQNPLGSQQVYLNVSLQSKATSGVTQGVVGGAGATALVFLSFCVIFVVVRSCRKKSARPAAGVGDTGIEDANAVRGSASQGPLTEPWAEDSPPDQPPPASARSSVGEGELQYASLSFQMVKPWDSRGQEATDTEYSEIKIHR
Experiment: Hs-Siglec9 ALPHAscreen SOP 20170721
Parameters: scale not given: direction of the effect not stated beside the values
Conditions: 10 µM
Consider the following compounds and their measured Percent Effect readings.
Reported property: Percent Effect (%)

>>> print(df.to_string())
                                    compound                           measured_target  value_units  measured_value
 0  COC(=O)CNC(=O)CSCc1nc(O)c2cc(C(C)C)sc2n1  Sialic acid-binding Ig-like lectin 9 (Homo sapiens) (UniProt Q9Y336)            %            2.72
 1  O=C(c1ccsc1)N1CC(C(=O)N2CCOCC2)C2(CCOCC2)C1 (stereo not given)  Sialic acid-binding Ig-like lectin 9 (Homo sapiens) (UniProt Q9Y336)            %            3.83
 2       CCOc1ccc(Cl)c(C(=O)N2CCN(CCO)CC2)n1  Sialic acid-binding Ig-like lectin 9 (Homo sapiens) (UniProt Q9Y336)            %               9
 3      COc1ccc(CN2CCc3ncnc(OC(C)C)c3CC2)cc1  Sialic acid-binding Ig-like lectin 9 (Homo sapiens) (UniProt Q9Y336)            %           -5.75
 4  O=C1CCC(C(=O)NCc2nncn2-c2ccccc2)CN1 (stereo not given)  Sialic acid-binding Ig-like lectin 9 (Homo sapiens) (UniProt Q9Y336)            %            20.8
 5  COc1cccc(COCC(O)CN2CC(n3cccn3)C2)c1 (stereo not given)  Sialic acid-binding Ig-like lectin 9 (Homo sapiens) (UniProt Q9Y336)            %            1.34
 6  Cc1cc(C2CCCN2C(=O)NCc2cccc(F)c2)on1 (stereo not given)  Sialic acid-binding Ig-like lectin 9 (Homo sapiens) (UniProt Q9Y336)            %           0.538
 7  O=C(N1CCOCC1)[C@@]12CCO[C@@H]1CCN(Cc1ccccc1F)C2  Sialic acid-binding Ig-like lectin 9 (Homo sapiens) (UniProt Q9Y336)            %             6.8
 8  CCn1cc2c(n1)CN(C(=O)c1ccncc1)CC2COCC1CC1 (stereo not given)  Sialic acid-binding Ig-like lectin 9 (Homo sapiens) (UniProt Q9Y336)            %            23.2
 9  O=C(c1ccccc1OCC1CC1)N1CCCC(n2ccnc2)C1 (stereo not given)  Sialic acid-binding Ig-like lectin 9 (Homo sapiens) (UniProt Q9Y336)            %         -0.0308
10  Cc1cc(C)n(CC2CCCN2C(=O)c2ccc3c(c2)nnn3C)n1 (stereo not given)  Sialic acid-binding Ig-like lectin 9 (Homo sapiens) (UniProt Q9Y336)            %           -4.94
11         O=C(Cc1ccc2c(c1)CCCC2)NCCc1ccccn1  Sialic acid-binding Ig-like lectin 9 (Homo sapiens) (UniProt Q9Y336)            %           -1.25
12  Cc1cc(C(=O)NC2CCCN(c3ccccc3)C2=O)on1 (stereo not given)  Sialic acid-binding Ig-like lectin 9 (Homo sapiens) (UniProt Q9Y336)            %            -2.4
13  O=C1[C@@H]2CCN(Cc3ccoc3)C[C@@H]2OCCN1Cc1cccnc1  Sialic acid-binding Ig-like lectin 9 (Homo sapiens) (UniProt Q9Y336)            %            5.81
14  CCn1ncc2c1C(COCC1CC1)CN(C(=O)c1cccs1)C2 (stereo not given)  Sialic acid-binding Ig-like lectin 9 (Homo sapiens) (UniProt Q9Y336)            %            2.69
15  COCC(=O)N1CCC(c2nc3ccc(N4CCCC4)cn3n2)CC1  Sialic acid-binding Ig-like lectin 9 (Homo sapiens) (UniProt Q9Y336)            %             5.8
16         Cn1cnc2c1CCN(CCCOc1ccc(C#N)cc1)C2  Sialic acid-binding Ig-like lectin 9 (Homo sapiens) (UniProt Q9Y336)            %           -0.18
17     CCOc1ccccc1OC1CCN(C(=O)c2cc[nH]n2)CC1  Sialic acid-binding Ig-like lectin 9 (Homo sapiens) (UniProt Q9Y336)            %           -2.66
18  Cc1[nH]c(=O)[nH]c(=O)c1CN1CCCC(CCc2c(F)cccc2F)C1 (stereo not given)  Sialic acid-binding Ig-like lectin 9 (Homo sapiens) (UniProt Q9Y336)            %            13.8
19  CN(C)CCNC(=O)c1cnc2c(c1)nc(-c1ccccc1Cl)n2C  Sialic acid-binding Ig-like lectin 9 (Homo sapiens) (UniProt Q9Y336)            %            30.9
20  CCS(=O)(=O)N1CCC2(CCCN(Cc3cc(OC)ccc3F)C2)C1 (stereo not given)  Sialic acid-binding Ig-like lectin 9 (Homo sapiens) (UniProt Q9Y336)            %           -4.29
21  COc1ccc(CNCC(C)Oc2ccccn2)cc1Br (stereo not given)  Sialic acid-binding Ig-like lectin 9 (Homo sapiens) (UniProt Q9Y336)            %           0.831
22  CCOCCOc1ccccc1C(=O)N1CCCC(c2ncc[nH]2)C1 (stereo not given)  Sialic acid-binding Ig-like lectin 9 (Homo sapiens) (UniProt Q9Y336)            %           0.341
23  CCc1c(C)sc(NC(=O)CN2CCN(CC)CC2)c1C(=O)OC  Sialic acid-binding Ig-like lectin 9 (Homo sapiens) (UniProt Q9Y336)            %            3.39
24   CSc1cc2c(cc1NC(=O)NCC(C)(C)C(N)=O)OCCO2  Sialic acid-binding Ig-like lectin 9 (Homo sapiens) (UniProt Q9Y336)            %           -2.41
25  Cc1ccccc1C(=O)NCc1ccc(N2CCNC(=O)C2)c(F)c1  Sialic acid-binding Ig-like lectin 9 (Homo sapiens) (UniProt Q9Y336)            %            4.68
26  NC(=O)c1cnn2c1NCC(CNCCCOc1ccccc1F)C2 (stereo not given)  Sialic acid-binding Ig-like lectin 9 (Homo sapiens) (UniProt Q9Y336)            %            14.6
27        COCCOc1ccccc1CNCc1c(C)nn(C)c1N(C)C  Sialic acid-binding Ig-like lectin 9 (Homo sapiens) (UniProt Q9Y336)            %          -0.683
28  Cc1ncc(CNCC2CCCN2c2cccnn2)s1 (stereo not given)  Sialic acid-binding Ig-like lectin 9 (Homo sapiens) (UniProt Q9Y336)            %           -1.84
29  c1nc(CCC2CCCN2)cc(N2CCCOCC2)n1 (stereo not given)  Sialic acid-binding Ig-like lectin 9 (Homo sapiens) (UniProt Q9Y336)            %           -4.56
